# Experimental details: Pharmacokinetic evaluation in mice
# Assay type: in vivo
# Run parameters: mouse, plasma, 1 mg/kg; ICR male mice, Dosage IV/PO 1/3 mg/kg
Value type: clearance (mL/min/kg)

Compound smiles | Result
CC(=O)N1CCOC[C@H]1CNc1nc2nc(-c3c(C)cc(C(F)(F)F)cc3O)ccc2o1 | 19.2

---

# System: His6-Flag-TEV-NLRP3 (134-1036) (Homo sapiens, UniProt Q96P20)
# Construct: fused on or other part: N-terminal His6 tag, Flag tag and TEV cleavage site
# Sequence (Q96P20 134-1036 limits assumed): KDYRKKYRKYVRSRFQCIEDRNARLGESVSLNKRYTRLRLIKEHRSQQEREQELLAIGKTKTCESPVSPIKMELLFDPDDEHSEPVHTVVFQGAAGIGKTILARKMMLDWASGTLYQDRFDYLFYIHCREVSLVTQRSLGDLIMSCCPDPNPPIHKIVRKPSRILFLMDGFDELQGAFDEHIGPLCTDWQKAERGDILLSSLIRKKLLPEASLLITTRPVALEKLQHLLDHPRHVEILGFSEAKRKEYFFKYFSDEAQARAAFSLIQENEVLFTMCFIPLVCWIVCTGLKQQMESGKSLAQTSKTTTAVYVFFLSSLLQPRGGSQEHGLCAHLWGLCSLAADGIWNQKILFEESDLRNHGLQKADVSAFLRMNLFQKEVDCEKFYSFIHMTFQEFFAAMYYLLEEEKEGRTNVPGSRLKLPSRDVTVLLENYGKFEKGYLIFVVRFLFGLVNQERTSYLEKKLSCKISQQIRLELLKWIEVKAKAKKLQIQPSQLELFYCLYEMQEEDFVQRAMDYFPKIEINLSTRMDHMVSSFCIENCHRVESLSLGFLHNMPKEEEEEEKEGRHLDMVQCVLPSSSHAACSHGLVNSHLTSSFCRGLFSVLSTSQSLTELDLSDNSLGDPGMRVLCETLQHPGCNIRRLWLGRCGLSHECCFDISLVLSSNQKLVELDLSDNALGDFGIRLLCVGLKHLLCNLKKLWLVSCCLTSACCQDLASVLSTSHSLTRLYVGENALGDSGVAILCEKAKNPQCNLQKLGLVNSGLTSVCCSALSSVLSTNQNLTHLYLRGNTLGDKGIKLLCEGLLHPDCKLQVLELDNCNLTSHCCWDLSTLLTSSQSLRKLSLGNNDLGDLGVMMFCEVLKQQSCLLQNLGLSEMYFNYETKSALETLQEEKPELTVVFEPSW
# Experimental details: NLRP3 fluorescence polarization (FP) binding assay, competition with probe NP3-301
# Run parameters: competition with NP3-301 for binding to NLRP3 (134-1036), 30 nM protein
pIC50: −log10 of the molar value.

Compound smiles | System | pIC50
Cc1cc(C(F)(F)F)cc(O)c1-c1ccc2oc(N3CC4CCC(C3)O4)nc2n1 | His6-Flag-TEV-NLRP3 (134-1036) (Homo sapiens, UniProt Q96P20) | ≥ 7.00
CC(=O)N1CCOC[C@H]1CNc1nc2c(C)cc(-c3c(C)cc(C(F)(F)F)cc3O)nn2n1 | His6-Flag-TEV-NLRP3 (134-1036) (Homo sapiens, UniProt Q96P20) | 6.30 to 7.00
CC(=O)N1CCOC[C@H]1CNc1nc2nc(-c3c(C)cc(C(F)(F)F)cc3O)ccc2o1 | His6-Flag-TEV-NLRP3 (134-1036) (Homo sapiens, UniProt Q96P20) | ≥ 7.00
Cc1cc(C(F)(F)F)cc(O)c1-c1ccc2oc(N3CCC4(CC3)COC4)nc2n1 | His6-Flag-TEV-NLRP3 (134-1036) (Homo sapiens, UniProt Q96P20) | ≥ 7.00
Cc1cc(Cl)cc(O)c1-c1ccc2oc(N3CCS(=O)(=O)CC3)nc2n1 | His6-Flag-TEV-NLRP3 (134-1036) (Homo sapiens, UniProt Q96P20) | ≥ 7.00
Cc1cc(C(F)(F)F)cc(O)c1-c1ccc2nc(N)nn2n1 | His6-Flag-TEV-NLRP3 (134-1036) (Homo sapiens, UniProt Q96P20) | 6.00 to 6.30
Cc1cc(C(F)(F)F)cc(O)c1-c1ccc2oc(NC[C@@H]3COCCN3S(=O)(=O)C3CC3)nc2n1 | His6-Flag-TEV-NLRP3 (134-1036) (Homo sapiens, UniProt Q96P20) | ≥ 7.00
Cc1cc(C(F)(F)F)cc(O)c1-c1ccc2nc(N3CCS(=O)(=O)CC3)nn2n1 | His6-Flag-TEV-NLRP3 (134-1036) (Homo sapiens, UniProt Q96P20) | ≥ 7.00

The reported measurements were obtained from patent US20260234150A1.
